TARGET: Rac GTPase-activating protein 1 (Homo sapiens)
ASSAY NAME: blockers of MgcRacGAP-driven Rac1 GTP hydrolysis – biochemical, ADP Hunter fluorescence, primary and confirmatory, confirmation (AID 624330);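 further: fluorescence reports GDP produced by GAP-driven GTP hydrolysis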
RUN CONDITIONS: MgcRacGAP-stimulated Rac1 GTP hydrolysis, at 30 µM, active compounds read high, GST-tagged Rac1 F28L mutant substrate
The campaign covered roughly 340,000 compounds. About 2,100 (0.62%) were called active. These entries were drawn from the full list. Measured potencies and affinities stand elsewhere.
inhibition values for the compounds below.
MEASURED ENDPOINT: inhibition

compound=Clc1ccccc1CNCc1ccncc1 assay_value="-5.2% (inactive)"
compound=Cc1ccc(C(=O)Nc2ccncc2)cc1S(=O)(=O)N1CCOCC1 assay_value="5.06% (inactive)"
compound=CC1(C)CC(=O)C=C(Nc2ccc(F)cc2)C1 assay_value="-10% (inactive)"
compound=COc1cc(C)c(S(=O)(=O)Nc2ccccc2F)cc1C assay_value="0.77% (inactive)"
compound="CCC1(c2ccccc2)NC(=O)N(CC(=O)N(CC(=O)Nc2ccccc2C(F)(F)F)Cc2ccco2)C1=O (centres undefined)" assay_value="1.52% (inactive)"
compound=N#CC(C#N)=C1C(=O)N(CCN2CCCCC2)c2ccccc21 assay_value="-11.4% (inactive)"
compound=Cc1cc(C)cc(Nc2c3c(nc4ncnn24)CCC3)c1 assay_value="8.12% (inactive)"
compound=O=C(Cc1ccc(Cl)cc1)N/N=C/c1ccccc1 assay_value="3.03% (inactive)"
compound=CC(C)CO/C(=N/S(=O)(=O)c1ccccc1)c1ccccc1 assay_value="5.75% (inactive)"
compound=CCN1CCN(c2ccc(S(=O)(=O)N3CCOCC3)cc2NC(=O)c2ccccc2SC)CC1 assay_value="3.45% (inactive)"
compound=CCOC(=O)c1c(N)sc(-c2ccccc2)c1C assay_value="27.2% (inactive)"
compound=CC(=O)Nc1ccc(N/C=C2/CCCC2=O)cc1 assay_value="14.8% (inactive)"
compound="COCC(C)OC(=O)C(C#N)c1nc2ccccc2nc1N1CCN(Cc2ccccc2)CC1 (centres undefined)" assay_value="6.54% (inactive)"
compound=CCOc1ccc(OCCn2c(S(=O)(=O)O)nc3c(N)ncnc32)cc1 assay_value="12.6% (inactive)"
compound=COC(=O)c1c(N)sc(Cc2ccccc2)c1C assay_value="7.62% (inactive)"
compound="Cc1cc(Cl)ccc1OC(C)C(=O)OCC(=O)Nc1ccc2[nH]c(=O)[nH]c2c1 (centres undefined)" assay_value="1.09% (inactive)"
compound=O=C(CCc1ccc(O)cc1)NN=Cc1ccc2c(c1)OCO2 assay_value="28.7% (inactive)"
compound=O=C(c1cc(-c2ccco2)on1)N1CCOCC1 assay_value="2.62% (inactive)"
compound=Cc1ncc(C[n+]2csc(CCOC(=O)C34CC5CC(CC(C5)C3)C4)c2C)c(N)n1 assay_value="1.84% (inactive)"
compound=CN(C)c1ccc(C(=O)NN2C(=O)c3ccccc3C2=O)cc1 assay_value="8.64% (inactive)"
compound=Cc1ccccc1CNCc1ccc2c(c1)OCO2 assay_value="25.3% (inactive)"
compound=COC(=O)[C@H](CC(C)C)NC(=O)NCCCc1ccccc1 assay_value="3.77% (inactive)"
compound="CSCC(=O)N1CCCC(N2CCN(c3ccc(F)cc3)CC2)C1 (centres undefined)" assay_value="15.7% (inactive)"
compound=Cc1cc(C(=O)CCC(=O)N(C)CC(=O)Nc2c(Cl)cccc2Cl)c(C)s1 assay_value="1.85% (inactive)"
